Values were extracted from patent US12448369B2.

- System: Rabbit Psoas myofibrils (skeletal myosin ATPase)
- test name: Myofibril ATPase assay, rabbit psoas (skeletal) myofibrils
- Format: biochemical
- condition info: rabbit psoas myofibrils; Y75 value
The label depends only on Skeletal EC25: y if it is at least 1 µM, n if it is smaller.

## Input Please tell me: is the compound Cc1nccc2[nH]c(=O)c(CC(=O)N[C@@H]3CNc4cc(F)cc(F)c43)c(C)c12 (single isomer, unassigned) [compound 181] at or over 1 µM in terms of Skeletal EC25?
## Output n

## Input Please tell me: is the compound COC[C@H](NC(=O)Cc1c(C)c2c(C)nccc2[nH]c1=O)c1ccc(C#N)cc1F [compound 169] at or over 1 µM in terms of Skeletal EC25?
## Output n

## Input Please tell me: is the compound Cc1nccc2[nH]c(=O)c([C@@H](C)C(=O)N[C@H](C)c3ccc(C#N)cc3F)c(C)c12 (single isomer, unassigned) [compound 183] at or over 1 µM in terms of Skeletal EC25?
## Output n

## Input Please tell me: is the compound CC(=O)N1C[C@H](NC(=O)Cc2c(C)c3c(C)nccc3[nH]c2=O)c2c(F)cc(F)cc21 [compound 206] at or over 1 µM in terms of Skeletal EC25?
## Output n

## Input Please tell me: is the compound Cc1nccc2[nH]c(=O)c(CC(=O)N[C@@H](C)c3ccc(F)cc3F)c(F)c12 [compound 150] at or over 1 µM in terms of Skeletal EC25?
## Output n

## Input Please tell me: is the compound C[C@H](NC(=O)Cc1c(C(F)(F)F)c2c(C3CC3)nccc2[nH]c1=O)c1ccc(C#N)nn1 (single isomer, unassigned) [compound 3004] at or over 1 µM in terms of Skeletal EC25?
## Output y

## Input Please tell me: is the compound Cc1nccc2[nH]c(=O)c(CC(=O)N[C@@H](CO)c3ncc(C#N)cc3F)c(C)c12 (single isomer, unassigned) [compound 248] at or over 1 µM in terms of Skeletal EC25?
## Output n

## Input Please tell me: is the compound CNc1nccc2[nH]c(=O)c(CC(=O)N[C@@H](C)c3ccc(F)cc3F)c(C)c12 [compound 354] at or over 1 µM in terms of Skeletal EC25?
## Output n

## Input Please tell me: is the compound Cc1cnncc1[C@H](C)NC(=O)Cc1c(C)c2c(C)nccc2[nH]c1=O [compound 481] at or over 1 µM in terms of Skeletal EC25?
## Output y

## Input Please tell me: is the compound Cc1c(CC(=O)N[C@@H](C)c2ccc(C#N)cn2)c(=O)[nH]c2ccnc(C#N)c12 [compound 158] at or over 1 µM in terms of Skeletal EC25?
## Output n

## Input Please tell me: is the compound Cc1c(CC(=O)N[C@@H](C)c2ccc(F)cc2F)c(=O)[nH]c2ccnc(C#N)c12 [compound 355] at or over 1 µM in terms of Skeletal EC25?
## Output n

## Input Please tell me: is the compound Cc1c(CC(=O)N[C@@H](C)c2ncc(F)cc2F)c(=O)[nH]c2ccc(O)nc12 (single isomer, unassigned) [compound 223] at or over 1 µM in terms of Skeletal EC25?
## Output y

## Input Please tell me: is the compound Cc1c(CC(=O)N[C@H](CO)c2ncc(F)cc2F)c(=O)[nH]c2ccnc(C#N)c12 [compound 261] at or over 1 µM in terms of Skeletal EC25?
## Output y

## Input Please tell me: is the compound Cc1c(C(F)(F)C(=O)N[C@@H](CO)c2ncc(C#N)cc2F)c(=O)[nH]c2ccnc(C#N)c12 (single isomer, unassigned) [compound 3504] at or over 1 µM in terms of Skeletal EC25?
## Output y

## Input Please tell me: is the compound Cc1nccc2[nH]c(=O)c([C@H](C)C(=O)N[C@@H](C)c3ccc(C#N)cc3F)c(C)c12 (single isomer, unassigned) [compound 196] at or over 1 µM in terms of Skeletal EC25?
## Output n

## Input Please tell me: is the compound Cc1c(CC(=O)N[C@H](C)c2ncc(C#N)cc2F)c(=O)[nH]c2ccc(O)nc12 [compound 165] at or over 1 µM in terms of Skeletal EC25?
## Output y

## Input Please tell me: is the compound Cc1nccc2[nH]c(=O)c(C(F)(F)C(=O)N[C@@H](CO)c3ncc(C#N)cc3F)c(C)c12 (single isomer, unassigned) [compound 3523] at or over 1 µM in terms of Skeletal EC25?
## Output y

## Input Please tell me: is the compound Cc1nccc2[nH]c(=O)c(CC(=O)N[C@H]3CCc4cc(F)cc(F)c43)c(C)c12 [compound 501] at or over 1 µM in terms of Skeletal EC25?
## Output y

## Input Please tell me: is the compound Cc1ccccc1[C@@H](C)NC(=O)Cc1c(C)c2c(C)nccc2[nH]c1=O (single isomer, unassigned) [compound 326] at or over 1 µM in terms of Skeletal EC25?
## Output y

## Input Please tell me: is the compound Cc1nc(C#N)cnc1[C@@H](C)NC(=O)C(F)(F)c1c(C)c2c(C)nccc2[nH]c1=O (single isomer, unassigned) [compound 3503] at or over 1 µM in terms of Skeletal EC25?
## Output n

## Input Please tell me: is the compound Cc1nccc2[nH]c(=O)c(CC(=O)N[C@@H]3CCc4cc(C#N)cc(F)c43)c(C)c12 (single isomer, unassigned) [compound 197] at or over 1 µM in terms of Skeletal EC25?
## Output y

## Input Please tell me: is the compound Cc1nncc2[nH]c(=O)c(CC(=O)N[C@H](C)c3ncc(C#N)cc3F)cc12 [compound 451] at or over 1 µM in terms of Skeletal EC25?
## Output y

## Input Please tell me: is the compound Cc1nccc2[nH]c(=O)c(C(F)(F)C(=O)N[C@H](CO)c3ncc(C#N)cc3F)c(C)c12 (single isomer, unassigned) [compound 3522] at or over 1 µM in terms of Skeletal EC25?
## Output n

## Input Please tell me: is the compound Cc1c(CC(=O)N[C@@H](C)c2ccc(F)cc2F)c(=O)[nH]c2ccc(Br)nc12 [compound 357] at or over 1 µM in terms of Skeletal EC25?
## Output n

## Input Please tell me: is the compound Cc1c(CC(=O)N[C@@H](C)c2ccc(F)cc2F)c(=O)[nH]c2ccc(C#N)nc12 [compound 281] at or over 1 µM in terms of Skeletal EC25?
## Output n

## Input Please tell me: is the compound CCc1nccc2[nH]c(=O)c(CC(=O)N[C@@H](C)c3ccc(F)cc3F)cc12 [compound 437] at or over 1 µM in terms of Skeletal EC25?
## Output y

## Input Please tell me: is the compound Cc1c(CC(=O)N[C@H](C)c2ncc(F)cc2F)c(=O)[nH]c2ccc(C#N)nc12 (single isomer, unassigned) [compound 249] at or over 1 µM in terms of Skeletal EC25?
## Output y
